B1: glmS ribozyme (parent)
chain: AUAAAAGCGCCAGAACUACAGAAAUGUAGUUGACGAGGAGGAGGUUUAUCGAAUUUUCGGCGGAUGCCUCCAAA

variants of: B1; assay: self-cleavage kobs at 40 uM GlcN6P; higher = faster cleavage; RNA array; settings: with glucosamine-6-phosphate
Variants at the floor of the assay were thinned out.
Kindly state self-cleavage kobs at 40 uM GlcN6P for each of the entries shown.

Prompt: Given the entry AUAAAAGCGCAAGAACUACAGAAAUGUAGUUAACGAGGUGGAGGUUUAUCGAAUUUUCGGCGGAUGCCUCCAAA , report its measured self-cleavage kobs at 40 uM GlcN6P.
Completion: < 1e-05 s⁻¹

Prompt: Another variant to look at: AUAAAAGCUCUAGAACUACAGAAAUGUAGUUGACGAGGAGGAGGUUUAUCGAAUUUUCGGCGGAUGCUUCCAAA
Completion: < 1e-05 s⁻¹

Prompt: Another variant to look at: AUAAAAGCGCCAGAACUACAGAAAUGUAGUUGACGAGGAGGCGGUUUAUCGAAUUUUCGGAGGAUUCCUCCAAA
Completion: < 1e-05 s⁻¹

Prompt: Another variant to look at: AUAAAUGCGCCAGAACUACAGAAAUGUAAUUGACGAGGAGGAGGUUUAUCGAAUUUUCGGCGGAUGCCUCCAAA
Completion: < 1e-05 s⁻¹

Prompt: Another variant to look at: AUAAAAGCGCCAGAACUACAGAAAUGUAUUUGAUGAGGAGGCGGUUUAUCGAAUUUUCGGCGGAUGCCUCCAAA
Completion: < 1e-05 s⁻¹

Prompt: Another variant to look at: AUAAAAGCGCCAGAACUACAGAAAUGUAGUUGACGAGGAGGAUGUUUACCGAAUUUUCGGCGGAUGCCUCCAAA
Completion: < 1e-05 s⁻¹

Prompt: Another variant to look at: AUAAAAGCGCCAGAACUACAGAAAUGUAGUUGACGAGGAUGAGGUUUAUCGAAUUUUCGGCGAAUGCCUCCAAA
Completion: < 1e-05 s⁻¹

Prompt: Another variant to look at: AUAAAAGCACCAGCACUACAGAAAUGUAGUUGACGAGGAGUAGGUUUAUCGAAUCUUCGGCGGAUGCCUCCAAA
Completion: < 1e-05 s⁻¹

Prompt: Another variant to look at: AUAAAAGCGCCAGAACUACAGAAAUGUAGUUGACGAGGAGGGGGUUUACCGAAUUUUCGGCGGAUGCCUCCAAA
Completion: < 1e-05 s⁻¹

Prompt: Another variant to look at: AUAAAAUCCCGCGAACUACAGAAAUGUAGUUGACGAGGAGGAGGUUUAUCGAAUAUUCGGCGGAUGCCUCCAAA
Completion: < 1e-05 s⁻¹

Prompt: Another variant to look at: AUAAAAGCGCGAGAACUACAGAAAUGUAGUUGACGAGGAGGAGGUUUCUCGAAUUUUCGGCGGAUGCCUCCAAA
Completion: < 1e-05 s⁻¹

Prompt: Another variant to look at: AUAAAAGCGCCAGAACUACAGAAAUGUAGUUGACGAGGAGGAGCUUUAUCGAAUUUUCGGCGGAUGACUCCAAA
Completion: 0.000178 s⁻¹
